- System: MCF7
- assay: Induction of apoptosis in human MCF7 cells assessed as necrotic cells at 2.5 uM after 24 hrs by annexin V-FITC/Propidium iodide staining based flow cytometric analysis (reference value: 1.22%)
- Format: functional
List of Activity values.
Value expressed in %; do not type the unit.

For orientation, consider the following solved cases.
1) Cc1coc2c1C(=O)C(=O)c1c-2ccc2c(C)cccc12: 3.63
2) COc1ccc2ccc3c(c2c1)-c1ccsc1C(=O)C3=O: 1.85
3) O=C1C(=O)c2ccsc2-c2ccccc21: 37.7
4) Cc1coc2c1C(=O)C(=O)c1c-2ccc2c1CCCC2(C)C: 5.27

--- query ---
response.value for "O=C1C(=O)c2sccc2-c2ccccc21" (field: Activity) = 22.2

Cited source: ChEMBL document CHEMBL4732262
